assay: Pharmacokinetics of cabozantinib in plasma of freely moving rats with or without liver radiotherapy; conditions: Sprague-Dawley, rat, plasma, po, 6 mg/kg, Tmax, rat plasma; 6 mg/kg p.o. q.d. 3 days; RT 9Gy x 3 f'x concurrent
PROPERTY: Tmax
Answers without a unit are incomplete; give the number and then its unit.

Looking up COc1cc2nccc(Oc3ccc(NC(=O)C4(C(=O)Nc5ccc(F)cc5)CC4)cc3)c2cc1OC [cabozantinib] , I see its Tmax listed as 38.3 min

###

experiment: Pharmacokinetics of cabozantinib in plasma of freely moving rats with or without liver radiotherapy; details: Sprague-Dawley, rat, plasma, po, 6 mg/kg, AUC0-T, rat plasma; 6 mg/kg p.o. q.d. 3 days; RT 2Gy x 3 f'x sequential
PROPERTY: AUC(0-t) (ng·h/mL)
Use ng·h/mL as the unit, but write only the number.

The measured AUC(0-t) associated with COc1cc2nccc(Oc3ccc(NC(=O)C4(C(=O)Nc5ccc(F)cc5)CC4)cc3)c2cc1OC [cabozantinib] reads 3900

###

test: Pharmacokinetics of cabozantinib in plasma of freely moving rats with or without liver radiotherapy; details: Sprague-Dawley, rat, plasma, po, 6 mg/kg, Cmax, rat plasma; 6 mg/kg p.o. q.d. 3 days; cabozantinib only (no RT)
PROPERTY: Cmax (ng/mL)
Lab book: enter the figure in ng/mL, no units written.

What the record says about COc1cc2nccc(Oc3ccc(NC(=O)C4(C(=O)Nc5ccc(F)cc5)CC4)cc3)c2cc1OC [cabozantinib] : Cmax is 1440

###

assay: Pharmacokinetics of cabozantinib in plasma of freely moving rats with or without liver radiotherapy; conditions: Sprague-Dawley, rat, plasma, po, 6 mg/kg, Cmax, rat plasma; 6 mg/kg p.o. q.d. 3 days; RT 9Gy x 3 f'x concurrent
PROPERTY: Cmax (ng/mL)
Your answer should be a plain number; it is taken to be in ng/mL.

Item: COc1cc2nccc(Oc3ccc(NC(=O)C4(C(=O)Nc5ccc(F)cc5)CC4)cc3)c2cc1OC [cabozantinib] | Cmax: 1370

###

assay: Pharmacokinetics of cabozantinib in plasma of freely moving rats with or without liver radiotherapy; conditions: Sprague-Dawley, rat, plasma, po, 6 mg/kg, Tmax, rat plasma; 6 mg/kg p.o. q.d. 3 days; RT 2Gy x 3 f'x sequential
PROPERTY: Tmax
Give the value; after it, write the unit.

Record summary for COc1cc2nccc(Oc3ccc(NC(=O)C4(C(=O)Nc5ccc(F)cc5)CC4)cc3)c2cc1OC [cabozantinib] : reported Tmax = 3.08 h

###

test: Pharmacokinetics of cabozantinib in plasma of freely moving rats with or without liver radiotherapy; conditions: Sprague-Dawley, rat, plasma, po, 6 mg/kg, MRT, rat plasma; 6 mg/kg p.o. q.d. 3 days; cabozantinib only (no RT)
PROPERTY: MRT

The molecule listed as COc1cc2nccc(Oc3ccc(NC(=O)C4(C(=O)Nc5ccc(F)cc5)CC4)cc3)c2cc1OC [cabozantinib] shows MRT equal to 26.7 h

###

test: Pharmacokinetics of cabozantinib in plasma of freely moving rats with or without liver radiotherapy; settings: Sprague-Dawley, rat, plasma, po, 6 mg/kg, MRT, rat plasma; 6 mg/kg p.o. q.d. 3 days; RT 9Gy x 3 f'x sequential
PROPERTY: MRT
State the result as a value with its unit after it.

Lab book: MRT of COc1cc2nccc(Oc3ccc(NC(=O)C4(C(=O)Nc5ccc(F)cc5)CC4)cc3)c2cc1OC [cabozantinib] noted as 38.5 h
